Reported log10(EC50) is given for each of the following molecules.
Target: Full-length (FL)-PRMT5-MEP50 enzyme complex (Homo sapiens)
Construct: Full-length (FL)-PRMT5-MEP50 enzyme complex (recombinant proteins from baculovirus-transfected Sf21 cells: FL-PRMT5; MW=73837 kDa and FL-MEP50; MW=38614); made in house; host or cells: baculovirus-transfected Sf21 cells
Sequence (O14744 whole entry): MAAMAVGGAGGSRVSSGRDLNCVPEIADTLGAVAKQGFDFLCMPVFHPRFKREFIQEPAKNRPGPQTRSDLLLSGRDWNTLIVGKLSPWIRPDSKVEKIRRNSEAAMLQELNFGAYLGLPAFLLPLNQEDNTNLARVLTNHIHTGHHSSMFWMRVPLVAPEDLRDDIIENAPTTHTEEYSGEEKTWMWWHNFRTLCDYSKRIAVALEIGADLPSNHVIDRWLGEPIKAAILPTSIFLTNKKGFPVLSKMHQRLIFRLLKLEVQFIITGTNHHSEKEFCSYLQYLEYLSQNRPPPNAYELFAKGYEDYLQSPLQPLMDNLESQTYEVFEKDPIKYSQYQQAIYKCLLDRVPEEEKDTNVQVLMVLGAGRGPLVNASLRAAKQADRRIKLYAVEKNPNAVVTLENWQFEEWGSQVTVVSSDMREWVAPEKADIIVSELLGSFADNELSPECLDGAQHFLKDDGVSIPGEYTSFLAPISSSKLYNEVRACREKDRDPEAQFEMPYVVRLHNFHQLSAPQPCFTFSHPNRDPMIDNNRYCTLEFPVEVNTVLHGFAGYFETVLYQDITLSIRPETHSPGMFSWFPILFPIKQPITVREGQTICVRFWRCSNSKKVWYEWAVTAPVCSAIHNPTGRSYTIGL
Sequence (Q9BQA1 whole entry partner): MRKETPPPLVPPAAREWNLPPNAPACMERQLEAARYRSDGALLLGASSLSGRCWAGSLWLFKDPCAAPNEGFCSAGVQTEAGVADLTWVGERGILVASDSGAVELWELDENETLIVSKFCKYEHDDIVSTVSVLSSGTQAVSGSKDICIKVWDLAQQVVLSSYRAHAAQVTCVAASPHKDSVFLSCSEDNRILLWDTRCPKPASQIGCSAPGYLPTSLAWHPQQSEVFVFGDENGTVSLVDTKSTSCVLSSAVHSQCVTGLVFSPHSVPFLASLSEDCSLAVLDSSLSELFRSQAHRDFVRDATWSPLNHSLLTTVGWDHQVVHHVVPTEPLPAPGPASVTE
Experiment: PRMT5-MEP50 Enzyme Methylation Assay (Version A)
Format: biochemical
Settings: single EC50 = 4 parameter single site sigmoidal fit; EC50 1 = first value of 7 parameter biphasic fit; read-out: Enzyme Methylation Assay Version A (EC50 or EC50 1)
Experimental: PRMT5-MEP50 Enzyme Methylation Assay (Version A) PRMT5-MEP50 biochemical assay is a direct measurement of the methylation activity of the enzyme complex on a short peptide substrate derived from the N-terminus of H4 histone. Methylation experiment was performed with recombinant PRMT5-MEP50 protein complex. The assessment of inhibitory effect of small molecules was measured by the effectiveness of the compounds to inhibit this reaction (EC50). […]
# values: log10(EC50), units nM

# annotated cases, reported log10(EC50) shown
Cc1cn2cc(C(=O)N3CC[C@]4(Cc5ccccc5CN4)[C@H](O)C3)nc2c(O)n1 | 1.14
CC(O)c1cc(Br)cn2cc(C(=O)N3CC[C@]4(Cc5ccccc5CN4)[C@H](O)C3)nc12 (single isomer, unassigned) [Example 33] | -0.25
COc1cccnc1-c1cc([C@@H](C)OC)c2nc(C(=O)N3CC[C@]4(Cc5ccccc5CN4)[C@H](O)C3)cn2c1 | 0.10
CN1CCC(Oc2nc(Br)cn3cc(C(=O)N4CC[C@]5(Cc6ccccc6CN5)[C@H](O)C4)nc23)C1=O (single isomer, unassigned) [Example 95] | 0.00
COc1cc(Br)cn2cc(C(=O)N3CC[C@]4(Cc5ccccc5CN4)[C@H](O)C3)nc12 | -0.42

Enquiry: Find the recorded log10(EC50) belonging to Cc1ccc(C(=O)N2CC[C@]3(Cc4ccccc4CN3)[C@H](O)C2)c(Br)n1 and report it.
Return: 1.15

Enquiry: Again, but for O=C(c1cnc2ncc(C(F)(F)F)cn12)N1CC[C@]2(Cc3ccccc3CN2)[C@H](O)C1
Return: 0.41

Enquiry: How about Cc1cc(Br)cn2cc(C(=O)N3CC[C@]4(Cc5ccccc5CN4)[C@H](O)C3)nc12 ?
Return: -0.16

Enquiry: Param item: O=C(c1cn2cc(Br)ccc2n1)N1CC[C@]2(Cc3ccccc3CN2)[C@H](O)C1
Return: -0.30

Enquiry: Let us now turn to Cc1cc(C)n2nc(C(=O)N3CC[C@]4(Cc5ccccc5CN4)[C@H](O)C3)nc2n1
Return: 2.11

Enquiry: Okay, and COC[C@H]1C[C@@H](C(F)(F)F)Cn2cc(C(=O)N3CC[C@]4(Cc5ccccc5CN4)[C@H](O)C3)nc21 (single isomer, unassigned) ?
Return: 0.72

Enquiry: Also need CO[C@H](C)c1cc(-c2ccnn2C)cn2cc(C(=O)N3CC[C@]4(Cc5ccccc5CN4)[C@H](O)C3)nc12 , thanks.
Return: -0.15

Enquiry: Now the molecule COc1ccc(C)cc1-n1cnc(C(=O)N2CC[C@]3(Cc4ccccc4CN3)[C@H](O)C2)c1
Return: 0.64

Enquiry: Same for CC(O)c1cc(C(F)(F)F)cn2cc(C(=O)N3CC[C@]4(Cc5ccccc5CN4)[C@H](O)C3)nc12 (single isomer, unassigned) [Example 109]
Return: -0.56

Entry source: patent US12441730B2
